systemName: LNX1_3, Q8TBB1
Sequence (Q8TBB1 500-596): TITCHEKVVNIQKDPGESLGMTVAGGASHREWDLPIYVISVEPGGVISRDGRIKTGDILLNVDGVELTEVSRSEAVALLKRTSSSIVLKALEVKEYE
test: holdup assay
Set-up: key: below the threshold = too weak to quantify, mostly under pKd 3.1 to 4
runConditions: plain residues with an end cap or a label only (N-terminal biotin on a linker: ado-ado)
readoutLabel: pKd

binder	readoutLabel	observedMeasurement
PSVGSKKTVL [REELD1, A0A1B0GV85]	pKd	below the threshold
TRKRSGEAAV [PFKM, P08237]	pKd	below the threshold
DPAESMESLV [PTPRG, P23470]	pKd	below the threshold
EDGESWEYQI [TRPV6, Q9H1D0]	pKd	3.52
NTANRRTTPV [CACNG2, Q9Y698]	pKd	below the threshold
QKAPTKEFYA [SDC2, P34741]	pKd	below the threshold
ARGPPRESEV [FAM110D, Q8TAY7]	pKd	below the threshold
RDPPAEWTRV [PTPN18, Q99952]	pKd	3.68
